Collected Ki values appear next to each entry.
Biological target: human CD (cathepsin D) (Homo sapiens, UniProt P07339)
Sequence (P07339 65-412): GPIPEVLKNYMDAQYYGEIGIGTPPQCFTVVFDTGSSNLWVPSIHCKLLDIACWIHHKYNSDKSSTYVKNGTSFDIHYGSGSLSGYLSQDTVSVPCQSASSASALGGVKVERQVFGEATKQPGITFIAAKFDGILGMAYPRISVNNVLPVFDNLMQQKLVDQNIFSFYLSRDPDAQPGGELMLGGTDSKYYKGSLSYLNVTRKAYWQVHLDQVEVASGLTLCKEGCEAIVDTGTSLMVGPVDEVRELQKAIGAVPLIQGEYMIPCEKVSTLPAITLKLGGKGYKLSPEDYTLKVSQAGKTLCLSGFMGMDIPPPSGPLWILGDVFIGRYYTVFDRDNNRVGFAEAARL
Experiment: enzyme inhibition of human cathepsin D (CD)
Assay type: biochemical
Conditions: human CD
Give your result in nM as a bare value.

Some solved entries appear below for comparison.
Under human CD (cathepsin D) (Homo sapiens, UniProt P07339): Ki value of CCC[C@H](O)[C@H](NC[C@H](Cc1ccccc1)NC(=O)c1cc2c3c(c1)c(CC)cn3CC(C)(C)S(=O)(=O)N2C)C(=O)NCC(C)C ? 530

Write down the reported Ki of CC[C@H](NC[C@H](Cc1ccccc1)NC(=O)c1cc(C(=O)N[C@H](C)c2ccccc2)cc(N(C)S(C)(=O)=O)c1)C(=O)NCC(C)C , test system: human CD (cathepsin D) (Homo sapiens, UniProt P07339). 8260

Report Ki for CCC[C@H](O)[C@H](NC[C@H](Cc1ccccc1)NC(=O)c1cc2c3c(c1)c(CC)cn3CCS(=O)(=O)N2C)C(=O)NCC(C)C tested on human CD (cathepsin D) (Homo sapiens, UniProt P07339). 690

Lab note: need Ki for CCC[C@H](O)[C@H](NC[C@H](Cc1ccccc1)NC(=O)c1cc2c3c(c1)c(CC)cn3CC1(CC1)S(=O)(=O)N2C)C(=O)NCC(C)C on human CD (cathepsin D) (Homo sapiens, UniProt P07339), anyone have it? 2000

Others:
Enter reported Ki observed with human CD (cathepsin D) (Homo sapiens, UniProt P07339) for CCc1cn2c3c(cc(C(=O)N[C@H](CN[C@H](C(=O)NCC(C)C)[C@H](C)O)Cc4ccccc4)cc13)N(C)S(=O)(=O)CC2 7100
